This collection of values is drawn from the supplement of paper PMC11061612.

Entries annotated with measured combination Emax
tested on: OCI-AML2 (Acute Myeloid Leukemia); assay: combination Emax (second highest fraction inhibited in the dose matrix, 72 h); higher = more inhibition; extreme values may be limits of the assay

>  <compound>
CN(CCO)CC[C@H](CSc1ccccc1)Nc1ccc(S(=O)(=O)NC(=O)c2ccc(N3CCC([C@@H](O)c4ccccc4-c4ccc(Cl)cc4)CC3)cc2)cc1S(=O)(=O)C(F)(F)F [AZD4320] + C1CN(CCC1(C(=O)N[C@@H](CCO)C2=CC=C(C=C2)Cl)N)C3=NC=NC4=C3C=CN4 [Capivasertib] (first compound max 1 µM, 7x7, partner max 3 µM)

>  <combination Emax>
1

$$$$
>  <compound>
NC1(C(=O)N[C@@H](CCO)c2ccc(Cl)cc2)CCN(c2ncnc3[nH]ccc23)CC1 [Capivasertib] + CCN(CCO)CCCOc1ccc2c(Nc3cc(CC(=O)Nc4cccc(F)c4)[nH]n3)ncnc2c1 [AZD2811] (first compound max 10 µM, 7x7, partner max 1 µM)

>  <combination Emax>
0.904

$$$$
>  <compound>
CC(=O)Nc1cccc(-n2c(=O)n(C3CC3)c(=O)c3c(Nc4ccc(I)cc4F)n(C)c(=O)c(C)c32)c1 [Trametinib] + Cc1nc(-c2cn3c(n2)-c2ccc(-c4cnn(C(C)(C)C(N)=O)c4)cc2OCC3)n(C(C)C)n1 [Taselisib] (first compound max 1 µM, 7x7, partner max 10 µM)

>  <combination Emax>
1

$$$$
>  <compound>
Cc1nc(Nc2ncc(C(=O)Nc3c(C)cccc3Cl)s2)cc(N2CCN(CCO)CC2)n1 [Dasatinib] + CC(=O)Nc1cccc(-n2c(=O)n(C3CC3)c(=O)c3c(Nc4ccc(I)cc4F)n(C)c(=O)c(C)c32)c1 [Trametinib] (first compound max 2 µM, 7x7, partner max 1 µM)

>  <combination Emax>
1

$$$$
>  <compound>
CCN(CCO)CCCOc1ccc2c(Nc3cc(CC(=O)Nc4cccc(F)c4)[nH]n3)ncnc2c1 [AZD2811] + C[C@@H]1COCCN1C2=NC(=NC(=C2)C3(CC3)[S@](=N)(=O)C)C4=C5C=CNC5=NC=C4 [AZD6738] (first compound max 1 µM, 7x7, partner max 10 µM)

>  <combination Emax>
0.984

$$$$
>  <compound>
CS(=O)(=O)CCNCc1ccc(-c2ccc3ncnc(Nc4ccc(OCc5cccc(F)c5)c(Cl)c4)c3c2)o1 [Lapatinib] + C[C@@H](Oc1cc(-c2cnn(C3CCNCC3)c2)cnc1N)c1c(Cl)ccc(F)c1Cl [Crizotinib] (first compound max 10 µM, 7x7, partner max 10 µM)

>  <combination Emax>
0.915

$$$$
>  <compound>
O=C(c1cc(Cc2n[nH]c(=O)c3ccccc23)ccc1F)N1CCN(C(=O)C2CC2)CC1 [Olaparib] + CC1(C)CCC(CN2CCN(c3ccc(C(=O)NS(=O)(=O)c4ccc(NCC5CCOCC5)c([N+](=O)[O-])c4)c(Oc4cnc5[nH]ccc5c4)c3)CC2)=C(c2ccc(Cl)cc2)C1 [Venetoclax] (first compound max 10 µM, 7x7, partner max 1 µM)

>  <combination Emax>
0.99

$$$$
>  <compound>
NC1(C(=O)N[C@@H](CCO)c2ccc(Cl)cc2)CCN(c2ncnc3[nH]ccc23)CC1 [Capivasertib] + C[C@@H]1COCCN1C2=NC(=NC(=C2)C3(CC3)[S@](=N)(=O)C)C4=C5C=CNC5=NC=C4 [AZD6738] (first compound max 10 µM, 7x7, partner max 10 µM)

>  <combination Emax>
0.983

$$$$
>  <compound>
Cn1cnc2c(F)c(Nc3ccc(Br)cc3Cl)c(C(=O)NOCCO)cc21 [Selumetinib] + C=CCn1c(=O)c2cnc(Nc3ccc(N4CCN(C)CC4)cc3)nc2n1-c1cccc(C(C)(C)O)n1 [AZD1775] (first compound max 10 µM, partner max 1 µM)

>  <combination Emax>
1

$$$$
>  <compound>
NC1(C(=O)N[C@@H](CCO)c2ccc(Cl)cc2)CCN(c2ncnc3[nH]ccc23)CC1 [Capivasertib] + CC(=O)c1c(C)c2cnc(Nc3ccc(N4CCNCC4)cn3)nc2n(C2CCCC2)c1=O [Palbociclib] (first compound max 10 µM, 7x7, partner max 10 µM)

>  <combination Emax>
0.804

$$$$
>  <compound>
O=C(c1cc(Cc2n[nH]c(=O)c3ccccc23)ccc1F)N1CCN(C(=O)C2CC2)CC1 [Olaparib] + COc1nnc2ccc(N3CCC(c4ccc(OCCN5CCN(C)C(=O)[C@H]5C)cc4)CC3)nn12 [AZD5153] (first compound max 10 µM, 7x7, partner max 1 µM)

>  <combination Emax>
0.983

$$$$
>  <compound>
COc1cc2ncnc(Nc3ccc(F)c(Cl)c3)c2cc1OCCCN1CCOCC1 [Gefitinib] + CC(C)n1c(=O)n(C)c2cnc3cc(F)c(-c4ccc(OCCCN5CCCCC5)nc4)cc3c21 [AZD1390] (first compound max 10 µM, 7x7, partner max 0.3 µM)

>  <combination Emax>
0.083

$$$$
>  <compound>
N#Cc1cnc(Nc2cc(NC[C@H]3CNCCO3)c(C(F)(F)F)cn2)cn1 [SRA737] + CCc1c2c(nc3ccc(O)cc13)-c1cc3c(c(=O)n1C2)COC(=O)[C@]3(O)CC [SN-38] (first compound max 10 µM, 7x7, partner max 0.3 µM)

>  <combination Emax>
1

$$$$
